Data origin, for the record: patent US20240300923A1

- target or test system: IRAK4 (Homo sapiens (Human), UniProt Q9NWZ3)
- Sequence (Q9NWZ3 whole entry): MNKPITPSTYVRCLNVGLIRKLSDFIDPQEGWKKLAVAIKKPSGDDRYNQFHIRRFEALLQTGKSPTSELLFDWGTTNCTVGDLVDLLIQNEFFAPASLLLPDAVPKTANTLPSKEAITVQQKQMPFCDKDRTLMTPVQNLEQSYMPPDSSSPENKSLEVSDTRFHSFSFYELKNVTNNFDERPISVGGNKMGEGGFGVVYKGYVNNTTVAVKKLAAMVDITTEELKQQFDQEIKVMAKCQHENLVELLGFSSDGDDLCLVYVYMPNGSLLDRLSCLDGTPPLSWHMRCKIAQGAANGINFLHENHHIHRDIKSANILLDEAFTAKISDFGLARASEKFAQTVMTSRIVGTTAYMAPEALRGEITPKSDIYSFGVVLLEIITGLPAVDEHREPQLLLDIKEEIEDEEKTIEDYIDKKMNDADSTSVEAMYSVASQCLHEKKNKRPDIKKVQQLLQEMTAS
- experiment: IRAK4 phosphorylation cell assay (IL-1β-stimulated Karpas-299 cells)
- Assay type: cell-based
- condition summary: IRAK4 auto-phosphorylation (pIRAK4 Thr345/Ser346) in IL-1β-stimulated Karpas-299 cells; geometric mean of at least 2 experiments
Consider the following molecules; for each one, report its IC50.
Entry rule: numbers only, all in nM.

q: # input molecule: COc1cc2nn([C@H]3CC[C@H](N(C)C(=O)[C@@H](C)O)CC3)cc2cc1C(=O)Nc1cccn(C)c1=O [Example 8] ; wanted: its IC50
a: 29

q: Same lookup for COc1cc2nn([C@H]3CC[C@H](N(C)C(=O)[C@@H](C)O)CC3)cc2cc1C(=O)Nc1cccn(-c2cnn(C)n2)c1=O [Example 17] , please.
a: 34

q: Same lookup for COc1cc2nn([C@H]3CC[C@@]4(CC3)COC(=O)N4C)cc2cc1C(=O)Nc1cccn(C)c1=O [Example 20] , please.
a: 128
